# Assayed target: RORγ (Homo sapiens)
# Construct: expressed in transfected cells; host or cells: 293FT cells (Invitrogen), expression vector pFN26A (Promega)
# Protocol details: RORγ GAL4 reporter gene assay
# Type: cell-based
# Condition parameters: inhibition of RORγ activity, GAL4-RORγ-LBD luciferase reporter in 293FT cells, overnight incubation; read-out: mean pIC50 (converted)
Below, each entry is listed alongside its reported IC50.

Look over these answered cases.
O=C(Cc1ccc(S(=O)(=O)CC2CC2)cc1)Nc1ccc(C(=O)N(Cc2ccccc2)Cc2ccccc2)cc1 :: ≤ 100 nM
O=C(Cc1ccc(S(=O)(=O)CC2CC2)cc1)Nc1ccc(C(=O)N2CCCC2c2ccccc2)cc1 (centres unmarked) :: ≤ 100 nM
CC1(N(C(=O)c2ccc(NC(=O)Cc3ccc(S(=O)(=O)CC4CC4)cc3)cc2)c2ccccc2)CC1 :: ≤ 10 nM
CC(NC(=O)c1ccc(NC(=O)Cc2ccc(S(=O)(=O)CC3CC3)cc2)cc1)c1ccccc1 (centres unmarked) :: ≤ 100 nM
Cc1cc(N(C)C(=O)c2ccc(NC(=O)Cc3ccc(S(=O)(=O)CC4CC4)cc3)cc2)no1 :: ≤ 10 nM

Reported IC50 ( `C[C@H](NC(=O)c1ccc(NC(=O)Cc2ccc(S(=O)(=O)CC3CC3)cc2)cc1)c1ccccc1F` ) = ≤ 100 nM

###

# Assayed target: RORγ (Homo sapiens, UniProt P51449)
# Construct: expressed in transfected cells; host or cells: 293FT cells (Invitrogen), expression vector pFN26A (Promega)
# Sequence (P51449 269-508 limits assumed): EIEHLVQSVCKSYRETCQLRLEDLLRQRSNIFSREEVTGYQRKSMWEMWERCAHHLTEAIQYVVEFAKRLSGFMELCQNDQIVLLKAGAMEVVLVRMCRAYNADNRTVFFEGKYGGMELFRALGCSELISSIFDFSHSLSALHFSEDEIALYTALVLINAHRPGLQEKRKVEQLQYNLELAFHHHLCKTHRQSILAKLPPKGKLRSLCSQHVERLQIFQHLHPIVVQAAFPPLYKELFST
# Protocol details: RORγ GAL4 reporter gene assay
# Assay type: cell-based
# Condition parameters: inhibition of RORγ activity, GAL4-RORγ-LBD luciferase reporter in 293FT cells, overnight incubation; read-out: mean pIC50 (converted)
Below, each entry is listed alongside its reported IC50.

CN(C(=O)c1ccc(NC(=O)Cc2ccc(S(=O)(=O)CC3CC3)cc2)cc1F)c1ccccc1F :: ≤ 10 nM
CN(Cc1ccco1)C(=O)c1ccc(NC(=O)Cc2ccc(S(=O)(=O)CC3CC3)cc2)cc1 :: ≤ 100 nM

IC50 for RORγ (Homo sapiens, UniProt P51449) with input `CCN(C(=O)c1ccc(NC(=O)Cc2ccc(S(=O)(=O)CC3CC3)cc2)cc1F)c1ccccc1Cl` equals ≤ 10 nM

IC50 for RORγ (Homo sapiens, UniProt P51449) with input `CC(C)CN(CC(C)C)C(=O)c1ccc(NC(=O)Cc2ccc(S(=O)(=O)CC3CC3)cc2)cc1` equals ≤ 100 nM

IC50 for RORγ (Homo sapiens, UniProt P51449) with input `CCN(C(=O)c1ccc(NC(=O)Cc2ccc(S(=O)(=O)NC3CC3)cc2)cc1)c1c(C)noc1C` equals ≤ 1000 nM

###

Below, each entry is listed alongside its reported IC50.
# Assayed target: RORγ (Homo sapiens)
# Construct: expressed in transfected cells; host or cells: 293FT cells (Invitrogen), expression vector pFN26A (Promega)
# Protocol details: RORγ GAL4 reporter gene assay
# Assay type: cell-based
# Condition parameters: inhibition of RORγ activity, GAL4-RORγ-LBD luciferase reporter in 293FT cells, overnight incubation; read-out: mean pIC50 (converted)

Look over these answered cases.
O=C(Cc1ccc(S(=O)(=O)CC2CC2)cc1)Nc1ccc(C(=O)N(c2ccccc2)C2CC(F)(F)C2)cc1 :: ≤ 10 nM
CCN(C(=O)c1ccc(NC(=O)Cc2ccc(S(=O)(=O)CC3CC3)cc2)cc1C)c1cccc(C)c1C :: ≤ 10 nM

Reported IC50 ( `CCN(C(=O)c1ccc(NC(=O)Cc2ccc(S(=O)(=O)CC3CC3)cc2)cc1)c1ccc(C)cc1` ) = ≤ 10 nM
